TGT: T1, recombinant hAng-2 (C-His, R&D Systems) (human, UniProt O15123 19-496)
T1 construct: Bought protein; also called human Ang-2 protein; C-terminal histidine-tagged human Ang2 (R&D Systems); not shown: C-terminal His tag
T1 sequence: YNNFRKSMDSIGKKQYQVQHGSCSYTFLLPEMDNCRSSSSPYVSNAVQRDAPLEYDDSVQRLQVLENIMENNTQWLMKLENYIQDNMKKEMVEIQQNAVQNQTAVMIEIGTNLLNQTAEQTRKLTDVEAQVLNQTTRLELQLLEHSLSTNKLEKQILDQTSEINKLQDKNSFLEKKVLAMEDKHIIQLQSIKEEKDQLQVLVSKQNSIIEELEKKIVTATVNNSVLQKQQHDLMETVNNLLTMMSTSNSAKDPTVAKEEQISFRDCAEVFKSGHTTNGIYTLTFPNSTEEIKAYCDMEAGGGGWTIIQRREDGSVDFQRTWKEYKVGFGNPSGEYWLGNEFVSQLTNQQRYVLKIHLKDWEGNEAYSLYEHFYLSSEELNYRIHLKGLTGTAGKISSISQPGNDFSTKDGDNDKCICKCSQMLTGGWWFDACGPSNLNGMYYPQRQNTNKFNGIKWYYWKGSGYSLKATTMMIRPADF
PROTOCOL DESCRIPTION: SPR, BIAcore T100; hAng2 (C-His) captured by anti-His antibody on CM5, antibody as analyte

BINDER	koff / s⁻¹
h10D6-OPTI-3 (antibody, human IgG1, V domains shown) VH: EVQLVESGGGLVQPGGSLRLSCAASGYSITSDYAWNWVRQAPGKGLEWMGKISYSGKTDYNPSLKSRSTISRDTSKNTFYLQMNSLRAEDTAVYYCARGNFEGAMDYWGQGTLVTVSS VL: DIQMTQSPSSLSASVGDRVTITCKASQSVSNDVAWYQQKPGKAPKLLIYYASNRYPGVPSRFSGSGSGTDFTLTISSLQPEDFATYYCQQDYSSPWTFGQGTKLEIK	0.000307
h10D6-OPTI-68 (antibody, human IgG1, V domains shown) VH: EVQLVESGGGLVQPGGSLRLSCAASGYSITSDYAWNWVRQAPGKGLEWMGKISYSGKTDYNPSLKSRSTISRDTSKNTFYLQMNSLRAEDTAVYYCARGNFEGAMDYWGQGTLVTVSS VL: DIQMTQSPSSLSASVGDRVTITCKASQFVSTDVHWYQQKPGKAPKLLIYYASNRYPGVPSRFSGSGSGTDFTLTISSLQPEDFATYYCQQDYSSPWTFGQGTKLEIK	0.00017
h10D6-OPTI-1 (antibody, human IgG1, V domains shown) VH: QVQLQESGPGLVKPSETLSLTCAVSGYSITSDYAWNWIRQPPGKGLEWMGKISYSGKTDYNPSLKSRSTISRDTSKNQFSLKLSSVTAADTAVYYCARGNFEGAMDYWGQGTLVTVSS VL: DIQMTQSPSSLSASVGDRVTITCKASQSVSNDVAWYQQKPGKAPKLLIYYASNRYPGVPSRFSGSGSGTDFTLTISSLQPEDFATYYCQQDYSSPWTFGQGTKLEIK	0.000321
